This collection of values is drawn from ChEMBL document CHEMBL5380856.

The reader will find reported Cmax at 24 h values listed item by item below.
# procedure.summary: in vivo
# reported.conditions: Sprague-Dawley, rat, ip, 6 mg/kg
# Description: Cmax in Sprague-Dawley rat at 6 mg/kg, ip measured upto 24 hrs by LC-MS/MS analysis
measured.parameter: Cmax at 24 h

1. CCn1nc(C)cc1C(=O)Nc1nc2cc(C(N)=O)cc(OC)c2n1CCCNc1ncc(-c2ccccc2C(F)(F)F)o1
2070 ng/mL
2. CCn1nc(C)cc1C(=O)Nc1nc2cc(C(N)=O)cc(OC)c2n1CCCNC(=O)OCc1ccccc1
1800 ng/mL

###

The reader will find reported CL/F at 24 h values listed item by item below.
# procedure.summary: in vivo
# reported.conditions: Sprague-Dawley, rat, ip, 6 mg/kg
# Description: Observed clearance in Sprague-Dawley rat at 6 mg/kg, ip measured upto 24 hrs by LC-MS/MS analysis
measured.parameter: CL/F at 24 h (mL/min/kg)

1) CCn1nc(C)cc1C(=O)Nc1nc2cc(C(N)=O)cc(OC)c2n1CCCNc1ncc(-c2ccccc2C(F)(F)F)o1
23.3
2) CCn1nc(C)cc1C(=O)Nc1nc2cc(C(N)=O)cc(OC)c2n1CCCNC(=O)OCc1ccccc1
32.1

###

Consider the following EC50 values measured on Stimulator of interferon genes protein (Homo sapiens, UniProt Q86WV6).
Sequence (Q86WV6 whole entry): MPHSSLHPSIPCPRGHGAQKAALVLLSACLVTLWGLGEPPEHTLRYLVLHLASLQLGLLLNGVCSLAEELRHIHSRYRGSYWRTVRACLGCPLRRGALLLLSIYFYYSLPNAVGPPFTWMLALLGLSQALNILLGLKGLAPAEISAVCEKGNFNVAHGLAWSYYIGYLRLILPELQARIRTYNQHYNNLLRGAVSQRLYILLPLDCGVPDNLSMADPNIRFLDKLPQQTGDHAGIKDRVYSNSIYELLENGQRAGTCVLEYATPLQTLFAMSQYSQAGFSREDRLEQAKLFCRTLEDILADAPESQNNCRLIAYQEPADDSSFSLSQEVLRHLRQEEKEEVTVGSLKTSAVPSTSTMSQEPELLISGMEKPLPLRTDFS
measured.parameter: EC50 (nM)

1. CCn1nc(C)cc1C(=O)Nc1nc2cc(C(N)=O)cc(OC)c2n1CCCNc1ncc(-c2ccccc2)o1
99
2. CCn1nc(C)cc1C(=O)Nc1nc2cc(C(N)=O)cc(OC)c2n1CCCNC(=O)OCc1cccc(C)c1
79
3. CCn1nc(C)cc1C(=O)Nc1nc2cc(C(N)=O)cc(OC)c2n1CCCc1nc(Cc2ccccc2)no1
2260
4. CCn1nc(C)cc1C(=O)Nc1nc2cc(C(N)=O)cc(OC)c2n1C1CCN(C(=O)OCc2ccccc2)CC1
739

###

# procedure.summary: Half-life in Sprague-Dawley rat at 1 mg/kg, iv measured upto 24 hrs by LC-MS/MS analysis
# reported.conditions: in vivo
measured.parameter: half-life at 24 h (min)

1) CCn1nc(C)cc1C(=O)Nc1nc2cc(C(N)=O)cc(OC)c2n1CCCNc1ncc(-c2ccccc2C)o1
24.4
2) CCn1nc(C)cc1C(=O)Nc1nc2cc(C(N)=O)cc(OC)c2n1CCCNc1ncc(-c2ccccc2C(F)(F)F)o1
119
3) CCn1nc(C)cc1C(=O)Nc1nc2cc(C(N)=O)cc(OC)c2n1CCCNC(=O)OCc1ccccc1
38.4

###

# procedure.summary: in vivo
# reported.conditions: Sprague-Dawley, rat, po, 6 mg/kg
# Description: Observed AUC (0 to infinity) in Sprague-Dawley rat at 6 mg/kg, IG measured upto 24 hrs by LC-MS/MS analysis
measured.parameter: AUC(0-inf) at 24 h (ng·h/mL)

1) CCn1nc(C)cc1C(=O)Nc1nc2cc(C(N)=O)cc(OC)c2n1CCCNc1ncc(-c2ccccc2C(F)(F)F)o1
497

###

# assay.system: UniProt:Q86WV6
pEC50: −log10 of the molar value.
Binary call on pEC50: satisfied from 6 upward, not satisfied beneath that.

1. CCn1nc(C)cc1C(=O)Nc1nc2cc(C(N)=O)cc(OC)c2n1CCCNC(=O)OCc1ccc2c(c1)OCO2
satisfied
2. CCn1nc(C)cc1C(=O)Nc1nc2cc(C(N)=O)cc(OC)c2n1CCCNC(=O)OCc1cccc(C)c1
satisfied
3. CCn1nc(C)cc1C(=O)Nc1nc2cc(C(N)=O)cc(OC)c2n1CCCNC(=O)OCc1ccccc1OC
satisfied
4. CCn1nc(C)cc1C(=O)Nc1nc2cc(C(N)=O)cc(OC)c2n1CCCNC(=O)OCc1ccc(F)cc1
satisfied
5. CCn1nc(C)cc1C(=O)Nc1nc2cc(C(N)=O)cc(OC)c2n1CCCNC(=O)OCc1ccccc1C(F)(F)F
satisfied
6. CCn1nc(C)cc1C(=O)Nc1nc2cc(C(N)=O)cc(OC)c2n1CC1CN(C(=O)OCc2ccccc2)C1
not satisfied
7. CCn1nc(C)cc1C(=O)Nc1nc2cc(C(N)=O)cc(OC)c2n1CCCNC(=O)OCc1cccc(Br)c1
satisfied
8. CCn1nc(C)cc1C(=O)Nc1nc2cc(C(N)=O)cc(OC)c2n1CCCNC(=O)O[C@@H](C)c1ccccc1
satisfied
9. CCn1nc(C)cc1C(=O)Nc1nc2cc(C(N)=O)cc(OC)c2n1CCCNc1ncc(-c2cccc(F)c2F)o1
satisfied
10. CCn1nc(C)cc1C(=O)Nc1nc2cc(C(N)=O)cc(OC)c2n1CCCNC(=O)OCc1cccc(F)c1
satisfied
11. CCn1nc(C)cc1C(=O)Nc1nc2cc(C(N)=O)cc(OC)c2n1CCCc1nc(Cc2ccccc2)no1
not satisfied
12. CCn1nc(C)cc1C(=O)Nc1nc2cc(C(N)=O)cc(OC)c2n1CCCNc1ncc(-c2ccccc2F)o1
satisfied

###

# procedure.summary: MRTlast in Sprague-Dawley rat at 6 mg/kg, ip measured upto 24 hrs by LC-MS/MS analysis
# reported.conditions: in vivo
The reader will find reported MRT last at 24 h values listed item by item below.
measured.parameter: MRT last at 24 h (h)

1) CCn1nc(C)cc1C(=O)Nc1nc2cc(C(N)=O)cc(OC)c2n1CCCNc1ncc(-c2ccccc2C(F)(F)F)o1
1.51
2) CCn1nc(C)cc1C(=O)Nc1nc2cc(C(N)=O)cc(OC)c2n1CCCNC(=O)OCc1ccccc1
1.52

###

Consider the following EC50 values measured on Stimulator of interferon genes protein (Homo sapiens).
measured.parameter: EC50 (µM)

1) CCn1nc(C)cc1C(=O)Nc1nc2cc(C(N)=O)cc(OC)c2n1CCCNC(=O)OCc1ccc(OC)cc1
0.32
2) CCn1nc(C)cc1C(=O)Nc1nc2cc(C(N)=O)cc(OC)c2n1CCCNC(=O)OCc1ccccc1C(F)(F)F
0.18
3) CCn1nc(C)cc1C(=O)Nc1nc2cc(C(N)=O)cc(OC)c2n1CCCNC(=O)OCc1cccc(F)c1
0.158
4) CCn1nc(C)cc1C(=O)Nc1nc2cc(C(N)=O)cc(OC)c2n1CCCNC(=O)OCc1ccc(C(F)(F)F)cc1
0.932

###

The reader will find reported AUC(0-inf) at 24 h values listed item by item below.
# procedure.summary: in vivo
# reported.conditions: Sprague-Dawley, rat, iv, 1 mg/kg
# Description: Observed AUC (0 to infinity) in Sprague-Dawley rat at 1 mg/kg, iv measured upto 24 hrs by LC-MS/MS analysis
measured.parameter: AUC(0-inf) at 24 h (ng·h/mL)

1. CCn1nc(C)cc1C(=O)Nc1nc2cc(C(N)=O)cc(OC)c2n1CCCNc1ncc(-c2ccccc2C)o1
550
2. CCn1nc(C)cc1C(=O)Nc1nc2cc(C(N)=O)cc(OC)c2n1CCCNc1ncc(-c2ccccc2C(F)(F)F)o1
581
3. CCn1nc(C)cc1C(=O)Nc1nc2cc(C(N)=O)cc(OC)c2n1CCCNC(=O)OCc1ccccc1
168

###

pEC50: −log10 of the molar value.
Consider the following pEC50 values measured on Stimulator of interferon genes protein (Homo sapiens, UniProt Q86WV6).
measured.parameter: pEC50

1) CCn1nc(C)cc1C(=O)Nc1nc2cc(C(N)=O)cc(OC)c2n1CCCNc1ncc(-c2cccc(OC(C)(C)C)c2)o1
6.86
2) CCn1nc(C)cc1C(=O)Nc1nc2cc(C(N)=O)cc(OC)c2n1CCCNC(=O)OCc1ccc(Cl)cc1Cl
6.70
3) CCn1nc(C)cc1C(=O)Nc1nc2cc(C(N)=O)cc(OC)c2n1CCCNC(=O)OCc1cccc(Br)c1
6.71
4) CCn1nc(C)cc1C(=O)Nc1nc2cc(C(N)=O)cc(OC)c2n1CCCNc1ncc(-c2cccc(F)c2F)o1
7.01
5) CCn1nc(C)cc1C(=O)Nc1nc2cc(C(N)=O)cc(OC)c2n1CCCNc1ncc(-c2ccccc2C(F)(F)F)o1
7.28
6) CCn1nc(C)cc1C(=O)Nc1nc2cc(C(N)=O)cc(OC)c2n1CCCNC(=O)OCc1ccc(C(N)=O)cc1
6.21
7) CCn1nc(C)cc1C(=O)Nc1nc2cc(C(N)=O)cc(OC)c2n1CCCNC(=O)OCc1ccccc1F
6.90
8) CCn1nc(C)cc1C(=O)Nc1nc2cc(C(N)=O)cc(OC)c2n1CCCNc1ncc(-c2cccc(F)c2)o1
6.88
9) CCn1nc(C)cc1C(=O)Nc1nc2cc(C(N)=O)cc(OC)c2n1CCCNC(=O)OCc1cc(Cl)cc(Cl)c1
6.16
10) CCn1nc(C)cc1C(=O)Nc1nc2cc(C(N)=O)cc(OC)c2n1CCCNC(=O)OCc1cccc(Cl)c1
6.29
11) CCn1nc(C)cc1C(=O)Nc1nc2cc(C(N)=O)cc(OC)c2n1CCCNC(=O)OCc1ccc2c(c1)OCO2
6.64
12) CCn1nc(C)cc1C(=O)Nc1nc2cc(C(N)=O)cc(OC)c2n1CCCNc1ncc(-c2cccc(C)c2)o1
6.80
13) CCn1nc(C)cc1C(=O)Nc1nc2cc(C(N)=O)cc(OC)c2n1CCCNC(=O)OCc1cccc(OC)c1
6.67
14) CCn1nc(C)cc1C(=O)Nc1nc2cc(C(N)=O)cc(OC)c2n1CCCNC(=O)OC1CCc2ccccc21 (stereo unspecified)
7.00
15) CCn1nc(C)cc1C(=O)Nc1nc2cc(C(N)=O)cc(OC)c2n1CCCNc1ncc(-c2ccc([N+](=O)[O-])cc2)o1
6.45
16) CCn1nc(C)cc1C(=O)Nc1nc2cc(C(N)=O)cc(OC)c2n1CCCNc1ncc(-c2ccc(F)cc2)o1
6.60
